biological target: human CCR2 (Homo sapiens, UniProt P41597); assay: CCR2 functional calcium assay (FLIPR calcium flux, hMCP-1 challenge); assay type: cell-based; design: expressed in transfected cells; host or cells: HEK293 EBNA cells; settings: HEK293 EBNA cells transfected with human CCR2, hMCP-1 challenge; read-out: Functional CCR2 fKi
Sequence (P41597 whole entry): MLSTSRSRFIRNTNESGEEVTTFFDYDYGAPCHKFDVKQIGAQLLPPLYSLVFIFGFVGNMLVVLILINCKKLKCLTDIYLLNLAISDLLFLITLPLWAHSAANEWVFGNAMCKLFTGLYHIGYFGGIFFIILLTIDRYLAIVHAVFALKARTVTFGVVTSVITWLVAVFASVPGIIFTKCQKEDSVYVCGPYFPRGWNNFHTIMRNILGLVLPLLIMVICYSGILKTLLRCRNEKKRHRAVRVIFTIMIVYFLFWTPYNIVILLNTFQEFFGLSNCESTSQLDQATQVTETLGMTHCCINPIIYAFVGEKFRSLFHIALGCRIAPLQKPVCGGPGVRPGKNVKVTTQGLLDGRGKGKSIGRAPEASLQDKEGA
pKi: −log10 of the molar value.
Test readout: pKi

compound="COC(=O)c1nc2ccnn2c(O)c1Cc1ccc(Cl)c(Cl)c1 [Example 83]" assay_target="human CCR2 (Homo sapiens, UniProt P41597)" test_readout=pKi result="> 8.00"
compound="Oc1c(Cc2cc(F)c(F)c(F)c2)c(C2CC2)nc2ccnn12 [Example 26]" assay_target="human CCR2 (Homo sapiens, UniProt P41597)" test_readout=pKi result="> 8.00"
compound="CC(C)c1nc2ccnn2c(O)c1Cc1cc(F)c(F)c(F)c1 [Example 36]" assay_target="human CCR2 (Homo sapiens, UniProt P41597)" test_readout=pKi result="> 8.00"
compound="C=CCNC(=O)c1cnn2c(O)c(Cc3ccc(Cl)cc3)c(C)nc12 [Example 106]" assay_target="human CCR2 (Homo sapiens, UniProt P41597)" test_readout=pKi result="6.00 to 7.00"
compound="CC(=O)c1nc2ccnn2c(O)c1Cc1ccc(Cl)c(Cl)c1 [Example 96]" assay_target="human CCR2 (Homo sapiens, UniProt P41597)" test_readout=pKi result="7.00 to 8.00"
compound="COCCNC(=O)c1cnn2c(O)c(Cc3ccc(Cl)cc3)c(COC)nc12 [Example 118]" assay_target="human CCR2 (Homo sapiens, UniProt P41597)" test_readout=pKi result="6.00 to 7.00"
compound="Oc1c(Cc2cc(F)cc(C(F)(F)F)c2)c(C2CC2)nc2ccnn12 [Example 33]" assay_target="human CCR2 (Homo sapiens, UniProt P41597)" test_readout=pKi result="> 8.00"
compound="CC(C)c1nc2ccnn2c(O)c1Oc1ccc(Cl)c(F)c1 [Example 67]" assay_target="human CCR2 (Homo sapiens, UniProt P41597)" test_readout=pKi result="> 8.00"
compound="Cc1nc2ccnn2c(O)c1Cc1ccc(Cl)cc1 [Example 1]" assay_target="human CCR2 (Homo sapiens, UniProt P41597)" test_readout=pKi result="7.00 to 8.00"
compound="CCOC(=O)c1nc2ccnn2c(O)c1Cc1ccc(Cl)c(Cl)c1 [Example 72]" assay_target="human CCR2 (Homo sapiens, UniProt P41597)" test_readout=pKi result="> 8.00"
compound="Cc1noc(Cc2nc3ccnn3c(O)c2Cc2ccc(Cl)cc2)n1 [Example 98]" assay_target="human CCR2 (Homo sapiens, UniProt P41597)" test_readout=pKi result="6.00 to 7.00"
compound="Oc1c(Cc2ccc(Cl)cc2)c(C2CCC2)nc2ccnn12 [Example 44]" assay_target="human CCR2 (Homo sapiens, UniProt P41597)" test_readout=pKi result="> 8.00"
compound="CCOC(=O)c1nc2ccnn2c(O)c1Cc1ccc(Cl)c(F)c1 [Example 74]" assay_target="human CCR2 (Homo sapiens, UniProt P41597)" test_readout=pKi result="> 8.00"
compound="CCCc1nc2ccnn2c(O)c1Cc1ccc(C(F)(F)F)c(F)c1 [Example 16]" assay_target="human CCR2 (Homo sapiens, UniProt P41597)" test_readout=pKi result="> 8.00"
compound="Cc1nc2ccnn2c(O)c1Cc1ccc(C(F)(F)F)cc1 [Example 2]" assay_target="human CCR2 (Homo sapiens, UniProt P41597)" test_readout=pKi result="6.00 to 7.00"
compound="CSCCNC(=O)c1cnn2c(O)c(Cc3ccc(Cl)cc3)c(C)nc12 [Example 108]" assay_target="human CCR2 (Homo sapiens, UniProt P41597)" test_readout=pKi result="6.00 to 7.00"
compound="CNC(=O)c1cnn2c(O)c(Cc3ccc(Cl)cc3)c(C)nc12 [Example 99]" assay_target="human CCR2 (Homo sapiens, UniProt P41597)" test_readout=pKi result="6.00 to 7.00"
compound="Oc1c(Cc2ccc(F)c(F)c2)c(C2CC2)nc2ccnn12 [Example 24]" assay_target="human CCR2 (Homo sapiens, UniProt P41597)" test_readout=pKi result="> 8.00"
compound="CCOC(=O)c1nc2ccnn2c(O)c1Oc1ccc(Cl)c(F)c1 [Example 75]" assay_target="human CCR2 (Homo sapiens, UniProt P41597)" test_readout=pKi result="7.00 to 8.00"
compound="Cc1nc2c(C(=O)NCCc3ccccc3)cnn2c(O)c1Cc1ccc(Cl)cc1 [Example 105]" assay_target="human CCR2 (Homo sapiens, UniProt P41597)" test_readout=pKi result="6.00 to 7.00"
compound="Oc1c(Cc2cc(F)cc(Cl)c2)c(C2CC2)nc2ccnn12 [Example 29]" assay_target="human CCR2 (Homo sapiens, UniProt P41597)" test_readout=pKi result="> 8.00"
compound="Oc1c(Cc2cc(Cl)cc(Cl)c2)c(C2CC2)nc2ccnn12 [Example 34]" assay_target="human CCR2 (Homo sapiens, UniProt P41597)" test_readout=pKi result="> 8.00"
compound="CC(C)OC(=O)c1nc2ccnn2c(O)c1Cc1ccc(F)c(Cl)c1 [Example 87]" assay_target="human CCR2 (Homo sapiens, UniProt P41597)" test_readout=pKi result="> 8.00"
compound="Oc1c(Cc2ccccc2)c(C2CC2)nc2ccnn12 [Example 18]" assay_target="human CCR2 (Homo sapiens, UniProt P41597)" test_readout=pKi result="> 8.00"
compound="CCc1nc2ccnn2c(O)c1Cc1ccc(Cl)c(Cl)c1 [Example 15]" assay_target="human CCR2 (Homo sapiens, UniProt P41597)" test_readout=pKi result="> 8.00"
compound="Oc1c(Cc2ccc(F)c(Cl)c2)c(C2CCC2)nc2ccnn12 [Example 46]" assay_target="human CCR2 (Homo sapiens, UniProt P41597)" test_readout=pKi result="> 8.00"
compound="Oc1c(Cc2ccc(F)c(C(F)(F)F)c2)c(C2CC2)nc2ccnn12 [Example 31]" assay_target="human CCR2 (Homo sapiens, UniProt P41597)" test_readout=pKi result="> 8.00"
compound="Oc1c(Cc2cc(F)c(F)c(F)c2)c(C2CCC2)nc2ccnn12 [Example 49]" assay_target="human CCR2 (Homo sapiens, UniProt P41597)" test_readout=pKi result="> 8.00"
compound="CC(C)c1nc2ccnn2c(O)c1Cc1cc(Cl)cc(Cl)c1 [Example 42]" assay_target="human CCR2 (Homo sapiens, UniProt P41597)" test_readout=pKi result="> 8.00"
compound="CC(C)OC(=O)c1nc2ccnn2c(O)c1Cc1cccc(C(F)(F)F)c1 [Example 86]" assay_target="human CCR2 (Homo sapiens, UniProt P41597)" test_readout=pKi result="7.00 to 8.00"
compound="CCc1nc2ccnn2c(O)c1Cc1cc(F)cc(F)c1 [Example 12]" assay_target="human CCR2 (Homo sapiens, UniProt P41597)" test_readout=pKi result="> 8.00"
compound="CC(C)(O)c1nc2ccnn2c(O)c1Cc1cccc(F)c1 [Example 93]" assay_target="human CCR2 (Homo sapiens, UniProt P41597)" test_readout=pKi result="6.00 to 7.00"
compound="Cc1nc2ccnn2c(O)c1Oc1cccc(F)c1 [Example 5]" assay_target="human CCR2 (Homo sapiens, UniProt P41597)" test_readout=pKi result="7.00 to 8.00"
compound="CCOC(=O)c1nc2ccnn2c(O)c1Cc1cccc(F)c1 [Example 73]" assay_target="human CCR2 (Homo sapiens, UniProt P41597)" test_readout=pKi result="6.00 to 7.00"
compound="Oc1c(Cc2ccc(Cl)c(F)c2)c(C2CC2)nc2ccnn12 [Example 27]" assay_target="human CCR2 (Homo sapiens, UniProt P41597)" test_readout=pKi result="> 8.00"
compound="Oc1c(Cc2cccc(OC(F)(F)F)c2)c(C2CC2)nc2ccnn12 [Example 20]" assay_target="human CCR2 (Homo sapiens, UniProt P41597)" test_readout=pKi result="7.00 to 8.00"
compound="CC(C)c1nc2ccnn2c(O)c1Cc1ccc(Cl)c(Cl)c1 [Example 41]" assay_target="human CCR2 (Homo sapiens, UniProt P41597)" test_readout=pKi result="> 8.00"
compound="Cc1nc2c(C)cnn2c(O)c1Cc1ccc(Cl)cc1 [Example 57]" assay_target="human CCR2 (Homo sapiens, UniProt P41597)" test_readout=pKi result="6.00 to 7.00"
compound="CCc1nc2c(C(=O)NCCOC)cnn2c(O)c1Cc1ccc(Cl)cc1 [Example 117]" assay_target="human CCR2 (Homo sapiens, UniProt P41597)" test_readout=pKi result="7.00 to 8.00"
